Kindly state log10 of IC50 for each of the entries shown.
# Tested System: human orexin-2 receptor (Homo sapiens (Human), UniProt O43614)
# Sequence (O43614 whole entry): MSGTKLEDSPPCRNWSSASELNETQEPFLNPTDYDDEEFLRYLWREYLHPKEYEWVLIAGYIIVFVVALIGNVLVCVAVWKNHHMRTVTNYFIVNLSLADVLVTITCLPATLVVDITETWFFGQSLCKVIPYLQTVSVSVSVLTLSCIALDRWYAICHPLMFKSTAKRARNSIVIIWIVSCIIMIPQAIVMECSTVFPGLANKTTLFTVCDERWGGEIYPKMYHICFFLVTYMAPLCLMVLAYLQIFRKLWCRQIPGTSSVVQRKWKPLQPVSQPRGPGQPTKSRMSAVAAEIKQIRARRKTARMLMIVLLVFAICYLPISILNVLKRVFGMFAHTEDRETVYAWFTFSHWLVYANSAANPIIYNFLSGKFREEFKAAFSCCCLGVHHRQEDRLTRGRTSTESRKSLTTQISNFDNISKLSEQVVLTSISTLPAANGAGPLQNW
# Experimental Protocol: hOX2R FLIPR Ca2+ flux assay
# Measurement Context: CHO cells expressing the receptor; agonist 70 pM Ala-6,12 human orexin-A
Quick note: numbers are log10 of IC50, with nM as the unit.

- Molecule: "CC(C)(O)c1coc(N2CC[C@@H]3CCN(C(=O)c4ccccc4-n4nccn4)C[C@@H]32)n1"
  log10 of IC50: 2.53

Dear colleague, could you please provide log10 of IC50 for the molecules listed below?
1. CC(O)(c1cncc(N2CC[C@@H]3CCN(C(=O)c4ccccc4-n4nccn4)C[C@@H]32)n1)C(F)(F)F (stereo partly shown)
2. N#Cc1ccnc(N2CC[C@@H]3CCN(C(=O)c4ccccc4-n4nccn4)C[C@@H]32)c1Cl
3. CC(C)(O)c1cnc(N2CC[C@@H]3CCN(C(=O)c4ccccc4-n4nccn4)C[C@@H]32)nc1
4. COc1cc(N2CC[C@@H]3CCN(C(=O)c4ccccc4-n4nccn4)C[C@@H]32)ncc1C#N
5. COc1ccnc(N2CC[C@@H]3CCN(C(=O)c4ccccc4-n4nccn4)C[C@@H]32)c1

Response given:
1. 3.52
2. 1.98
3. 3.26
4. 3.42
5. 3.00

Challenge: log10 of IC50 for `O=C(c1ccccc1-n1nccn1)N1CC[C@H]2CCN(c3cc(C(F)(F)F)ccn3)[C@H]2C1` ?
Response given: 1.82

----------
# Tested System: human orexin-2 receptor (Homo sapiens (Human), UniProt O43614)
# Experimental Protocol: hOX2R FLIPR Ca2+ flux assay
# Measurement Context: CHO cells expressing the receptor; agonist 70 pM Ala-6,12 human orexin-A
Metric Name: pIC50
One number for each entry, as −log10 of the molar value.

- Molecule: "NC(=O)c1ccnc(N2CC[C@@H]3CCN(C(=O)c4ccccc4-n4nccn4)C[C@@H]32)c1"
  pIC50: 6.25
- Molecule: "O=C(c1ccccc1-n1nccn1)N1CC[C@H]2CCN(c3ccc4ccccc4n3)[C@H]2C1"
  pIC50: 5.82
- Molecule: "CN(C)c1ccnc(N2CC[C@@H]3CCN(C(=O)c4ccccc4-n4nccn4)C[C@@H]32)c1C#N"
  pIC50: 7.16
- Molecule: "COc1cc(OC)nc(N2CC[C@@H]3CCN(C(=O)c4ccccc4-n4nccn4)C[C@@H]32)n1"
  pIC50: 5.68
- Molecule: "N#Cc1ccnc(N2CC[C@@H]3CCN(C(=O)c4ccc(F)cc4-n4nccn4)C[C@@H]32)c1"
  pIC50: 7.20

Dear colleague, could you please provide pIC50 for the molecules listed below?
1. N#Cc1ccnc(N2CC[C@H]3CCN(C(=O)c4ccccc4-n4ncnn4)C[C@H]32)c1 (stereo in doubt) [Example D2]
2. O=C(c1ccccc1-n1nccn1)N1CC[C@H]2CCN(c3ccc(-n4ccnc4)nn3)[C@H]2C1
3. Cc1cncc(N2CC[C@@H]3CCN(C(=O)c4ccccc4-n4nccn4)C[C@@H]32)n1
4. O=C(c1ccccc1-n1nccn1)N1CC[C@H]2CCN(c3nccn4nccc34)[C@H]2C1

Response given:
6.96
5.00
5.68
5.70

Dear colleague, could you please provide pIC50 for the molecules listed below?
1. N#Cc1ccnc(N2CC[C@H]3CCN(C(=O)c4ccccc4-n4nccn4)C[C@H]32)c1
2. O=C(c1ccccc1-n1nccn1)N1CC[C@H]2CCN(c3ncnc4[nH]ccc34)[C@H]2C1
3. CN(C)c1cc(Cl)nc(N2CC[C@@H]3CCN(C(=O)c4ccccc4-n4nccn4)C[C@@H]32)n1
4. N#Cc1ccnc(N2CC[C@@H]3CCN(C(=O)c4ccccc4C4CC4(F)F)C[C@@H]32)c1 (stereo partly drawn)

Response given:
1. 7.39
2. 5.00
3. 6.89
4. 7.36

These measurements were taken from patent US9938276B2.
